- Tested on: Micrococcus luteus
- protocol description: Antibacterial activity against Micrococcus luteus ATCC 4698 after 24 hrs by NCCLS two fold broth microdilution method
- Assay type: functional
- settings: NCTC 2665, 24 h
parameter: MIC

Solved entries (count: 3):
Nc1ccc(S(=O)(=O)Cc2nc3ccccc3n2Cc2ccc(Cl)cc2)cc1    8 µg/mL
CCCn1c(CS(=O)(=O)c2ccc(N)cc2)nc2ccccc21    256 µg/mL
CCCCCCn1c(CS(=O)(=O)c2ccc(N)cc2)nc2ccccc21    512 µg/mL

Ask: Param item = "CCn1c(CS(=O)(=O)c2ccc(NC(C)=O)cc2)nc2ccccc21" ; retrieve measured MIC.
Result: 128 µg/mL

Ask: "CC(=O)Nc1ccc(S(=O)(=O)Cc2nc3ccccc3n2Cc2ccc(F)cc2)cc1" , same question.
Result: 64 µg/mL

Ask: "CCCCCCCCn1c(CS(=O)(=O)c2ccc(NC(C)=O)cc2)nc2ccccc21" , same question.
Result: 256 µg/mL

###

- System: Micrococcus luteus
- protocol description: Antibacterial activity against Micrococcus luteus ATCC 4698 after 24 hrs by NCCLS two fold broth microdilution method
- Assay type: functional
- settings: NCTC 2665, 24 h
Response field label: string, one of yes (MIC strictly below 300 µg/mL) or no.

Below are worked cases with known answers.
CCCCCn1c(CS(=O)(=O)c2ccc(N)cc2)nc2ccccc21    yes
CCn1c(CS(=O)(=O)c2ccc(N)cc2)nc2ccccc21    yes
CC(=O)Nc1ccc(S(=O)(=O)Cc2nc3ccccc3n2CCCCCn2c3ccccc3c3ccccc32)cc1    yes
CCCCCCCCCCCCn1c(CS(=O)(=O)c2ccc(N)cc2)nc2ccccc21    yes
CCCCCCCCn1c(CS(=O)(=O)c2ccc(N)cc2)nc2ccccc21    no

Ask: MIC strictly < 300 µg/mL for this compound? "CC(=O)Nc1ccc(S(=O)(=O)Cc2nc3ccccc3n2Cc2cccc(Cl)c2)cc1"
Result: yes

Ask: "CCCCCCCn1c(CS(=O)(=O)c2ccc(N)cc2)nc2ccccc21" , same question.
Result: yes

Ask: "CC(=O)Nc1ccc(S(=O)(=O)Cc2nc3ccccc3n2Cc2ccccc2F)cc1" , same question.
Result: yes

Ask: "Nc1ccc(S(=O)(=O)Cc2nc3ccccc3n2Cc2ccc(Cl)cc2Cl)cc1" , same question.
Result: yes

Ask: "CCCCCCCCCCCCn1c(CS(=O)(=O)c2ccc(NC(C)=O)cc2)nc2ccccc21" , same question.
Result: no

Ask: "CC(=O)Nc1ccc(S(=O)(=O)Cc2nc3ccccc3n2Cc2cccc(F)c2)cc1" , same question.
Result: no

Ask: "CCCCCCCCCCn1c(CS(=O)(=O)c2ccc(NC(C)=O)cc2)nc2ccccc21" , same question.
Result: no

Ask: "CCCn1c(CS(=O)(=O)c2ccc(NC(C)=O)cc2)nc2ccccc21" , same question.
Result: yes

Ask: "CCCCCn1c(CS(=O)(=O)c2ccc(NC(C)=O)cc2)nc2ccccc21" , same question.
Result: yes

Ask: "Nc1ccc(S(=O)(=O)Cc2nc3ccccc3n2Cc2ccc(Cl)c(Cl)c2)cc1" , same question.
Result: yes

Ask: "CC(=O)Nc1ccc(S(=O)(=O)Cc2nc3ccccc3[nH]2)cc1" , same question.
Result: yes

Ask: "Nc1ccc(S(=O)(=O)Cc2nc3ccccc3n2Cc2cccc(Cl)c2)cc1" , same question.
Result: yes

Ask: "Nc1ccc(S(=O)(=O)Cc2nc3ccccc3n2Cc2ccccc2Cl)cc1" , same question.
Result: yes

Ask: "CC(=O)Nc1ccc(S(=O)(=O)Cc2nc3ccccc3n2Cc2ccccc2Cl)cc1" , same question.
Result: yes

Ask: "Nc1ccc(S(=O)(=O)Cc2nc3ccccc3n2Cc2ccccc2F)cc1" , same question.
Result: yes

Ask: "CCCCCCn1c(CS(=O)(=O)c2ccc(NC(C)=O)cc2)nc2ccccc21" , same question.
Result: yes

Ask: "CCCCCCCCCCCCCCCCCCn1c(CS(=O)(=O)c2ccc(N)cc2)nc2ccccc21" , same question.
Result: yes

Ask: "O=C(N[C@H](CO)[C@H](O)c1ccc([N+](=O)[O-])cc1)C(Cl)Cl" , same question.
Result: yes

###

- System: Micrococcus luteus
- protocol description: Antibacterial activity against Micrococcus luteus ATCC 4698 after 24 hrs by NCCLS two fold broth microdilution method
- Format: functional
- settings: NCTC 2665, 24 h
Recorded MIC, one value per entry.
Report as a plain number; the unit µg/mL is understood.

CC(=O)Nc1ccc(S(=O)(=O)Cc2nc3ccccc3n2Cc2ccc(Cl)cc2)cc1    128
Nc1ccc(S(=O)(=O)Cc2nc3ccccc3n2Cc2cccc(F)c2)cc1    512

Now take the following compound into account.
Ask: Param item = "CCn1cc(C(=O)O)c(=O)c2cc(F)c(N3CCNCC3)cc21" ; retrieve measured MIC.
Result: 1
